assay.system: HLA-A*02:17
procedure.details: IEDB peptide-MHC binding, purified MHC/competitive/radioactivity; filed as Kd, often an IC50 or EC50 that approximates it; bounds were set here for any values at or beyond the usual limits of such assays
condition.details: source organism: Dengue virus 1 Brazil/97-11/1997
assay.endpoint: pKd
pKd here is simply -log10 of the concentration when that concentration is written in mol/L.

So for IMAIGIVSI , the logged pKd turned out to be 6.16

* * *

assay.system: HLA-B*58:01
procedure.details: IEDB peptide-MHC binding, purified MHC/direct/fluorescence; filed as Kd, often an IC50 or EC50 that approximates it; bounds were set here for any values at or beyond the usual limits of such assays
condition.details: source organism: Brucella suis
pKd: −log10 of the molar value.
assay.endpoint: pKd

Form: item YQRRRRFAI ; test system HLA-B*58:01; pKd: ≤ 4.70

* * *

assay.system: HLA-A*03:01
procedure.details: IEDB peptide-MHC binding, purified MHC/direct/fluorescence; filed as Kd, often an IC50 or EC50 that approximates it; bounds were set here for any values at or beyond the usual limits of such assays
condition.details: source organism: Brucella abortus 2308
assay.endpoint: Kd (nM)
Numbers only here, please. The scale is nM.

The recorded Kd for RMIESRMSK is 131

* * *

Listed here: items and their measured Kd.
assay.system: HLA-A*11:01
procedure.details: IEDB peptide-MHC binding, purified MHC/direct/fluorescence; filed as Kd, often an IC50 or EC50 that approximates it; bounds were set here for any values at or beyond the usual limits of such assays
condition.details: source organism: Mycobacterium tuberculosis

RTMFLFVFR | 0.0946 µM
MPRLSRNAA | ≥ 20 µM

Sure, the documented Kd for RPPMVTSGL is ≥ 20 µM

* * *

assay.system: HLA-B*46:01
procedure.details: IEDB peptide-MHC binding, purified MHC/competitive/fluorescence; filed as Kd, often an IC50 or EC50 that approximates it; bounds were set here for any values at or beyond the usual limits of such assays
condition.details: source organism: Influenza A virus H3N2
assay.endpoint: Kd

So for FVRTLFQQM , the logged Kd turned out to be ≥ 20 µM

* * *

assay.system: HLA-A*02:19
procedure.details: IEDB peptide-MHC binding, purified MHC/direct/fluorescence; filed as Kd, often an IC50 or EC50 that approximates it; bounds were set here for any values at or beyond the usual limits of such assays
condition.details: source organism: Zaire ebolavirus
assay.endpoint: Kd

The value of Kd measured for the sequence APFARLLNL turned out to be ≥ 20 µM

* * *

assay.system: HLA-A*01:01
procedure.details: IEDB peptide-MHC binding, purified MHC/competitive/radioactivity; filed as Kd, often an IC50 or EC50 that approximates it; bounds were set here for any values at or beyond the usual limits of such assays
condition.details: source organism: Lymphocytic choriomeningitis virus (strain Armstrong)
assay.endpoint: pKd
Scale note: pKd = -log10(concentration in M).

KTGESSRCY | 5.14

Let us examine a further case.
# pKd of DSEEYHLLY = 8.56

* * *

assay.system: HLA-B*39:01
procedure.details: IEDB peptide-MHC binding, purified MHC/competitive/fluorescence; filed as Kd, often an IC50 or EC50 that approximates it; bounds were set here for any values at or beyond the usual limits of such assays
condition.details: source organism: Yersinia pestis Nepal516
assay.endpoint: Kd (nM)
Write the answer as a number in nM, unit excluded.

The recorded Kd for RAMRMVYYL is 421

* * *

assay.system: HLA-B*18:01
procedure.details: IEDB peptide-MHC binding, purified MHC/competitive/fluorescence; filed as Kd, often an IC50 or EC50 that approximates it; bounds were set here for any values at or beyond the usual limits of such assays
condition.details: source organism: Human immunodeficiency virus 1
assay.endpoint: pKd
Would you please state pKd, meaning minus log10 of the concentration in mol/L, as a bare number?

Param item: RSLFNTVAVLY ; param system: HLA-B*18:01; output pKd: 6.44

* * *

Examples of sequences with documented pKd follow.
assay.system: HLA-B*07:02
procedure.details: IEDB peptide-MHC binding, purified MHC/direct/fluorescence; filed as Kd, often an IC50 or EC50 that approximates it; bounds were set here for any values at or beyond the usual limits of such assays
condition.details: source organism: Influenza A virus (A/Puerto Rico/8/34/Mount Sinai(H1N1))
Note on units: pKd is unitless, being -log10 of a concentration expressed in mol/L.

FVRTLFQQM | 6.30

Lab note: next sequence to report on.
Reported pKd for FLKDVMESM was 6.51

* * *

assay.system: HLA-A*24:02
procedure.details: IEDB peptide-MHC binding, purified MHC/direct/fluorescence; filed as Kd, often an IC50 or EC50 that approximates it; bounds were set here for any values at or beyond the usual limits of such assays
condition.details: source organism: Dengue virus 1 Singapore/S275/1990
assay.endpoint: Kd (nM)
Expressed in nM, but write only the number.

GET /value?item= GFMNEDHWF &field=Kd returns 90

* * *

assay.system: HLA-C*12:03
procedure.details: IEDB peptide-MHC binding, purified MHC/direct/fluorescence; filed as Kd, often an IC50 or EC50 that approximates it; bounds were set here for any values at or beyond the usual limits of such assays
condition.details: source organism: Mycobacterium tuberculosis F11
assay.endpoint: pKd
Note on pKd: it is the negative log10 of concentration, concentration in mol/L.

Data point: FVAATGRPL ; pKd = 7.02

* * *

assay.system: HLA-B*58:01
procedure.details: IEDB peptide-MHC binding, purified MHC/direct/fluorescence; filed as Kd, often an IC50 or EC50 that approximates it; bounds were set here for any values at or beyond the usual limits of such assays
condition.details: source organism: SARS-CoV1
assay.endpoint: pKd
Convention used: pKd is expressed as -log10 of the molar concentration.

pKd for SALNHTKKW is 6.46

* * *

assay.system: HLA-B*39:01
procedure.details: IEDB peptide-MHC binding, purified MHC/competitive/fluorescence; filed as Kd, often an IC50 or EC50 that approximates it; bounds were set here for any values at or beyond the usual limits of such assays
condition.details: source organism: Hantaan virus 76-118
pKd: −log10 of the molar value.
assay.endpoint: pKd

Param item: IRKPKHLYV ; param system: HLA-B*39:01; output pKd: ≤ 4.70

* * *

assay.system: HLA-A*26:01
procedure.details: IEDB peptide-MHC binding, purified MHC/direct/fluorescence; filed as Kd, often an IC50 or EC50 that approximates it; bounds were set here for any values at or beyond the usual limits of such assays
condition.details: source organism: Variola virus
assay.endpoint: pKd
Formally, pKd is defined as -log10 of the concentration c, with c in mol/L.

// recorded pKd for MPAYIRNTL : 5.16

* * *

assay.system: HLA-A*03:01
procedure.details: IEDB peptide-MHC binding, purified MHC/competitive/radioactivity; filed as Kd, often an IC50 or EC50 that approximates it; bounds were set here for any values at or beyond the usual limits of such assays
condition.details: source organism: Vaccinia virus Copenhagen
pKd: −log10 of the molar value.
Could you label it class 1 if measured pKd is 7 or higher, and class 0 otherwise?

ILARRPTPK | class 1
SLLKETIQK | class 1
YTFAISYCR | class 0
ILARRPTPKK | class 1

State whether the measured pKd reaches 7, counting equality as reaching it, for GFTATICLK class 0

* * *

assay.system: HLA-B*15:01
procedure.details: IEDB peptide-MHC binding, purified MHC/direct/fluorescence; filed as Kd, often an IC50 or EC50 that approximates it; bounds were set here for any values at or beyond the usual limits of such assays
condition.details: source organism: Mammarenavirus brazilense
assay.endpoint: Kd

For this sequence ( EFKSRFFVM ), measured Kd is ≥ 20 µM

* * *

Below: a set of entries, each annotated with reported Kd.
assay.system: HLA-B*15:01
procedure.details: IEDB peptide-MHC binding, purified MHC/competitive/fluorescence; filed as Kd, often an IC50 or EC50 that approximates it; bounds were set here for any values at or beyond the usual limits of such assays
condition.details: source organism: Homo sapiens

WTDLFDNKV | ≥ 20 µM

The sequence SLGDPLHQA on HLA-B*15:01: Kd was ≥ 20 µM

* * *

assay.system: HLA-B*44:02
procedure.details: IEDB peptide-MHC binding, purified MHC/direct/fluorescence; filed as Kd, often an IC50 or EC50 that approximates it; bounds were set here for any values at or beyond the usual limits of such assays
condition.details: source organism: Burkholderia mallei
assay.endpoint: Kd

Entry FEIGNGDAG , tested on HLA-B*44:02, has a reported Kd of ≥ 20 µM

* * *

assay.system: HLA-A*23:01
procedure.details: IEDB peptide-MHC binding, purified MHC/competitive/fluorescence; filed as Kd, often an IC50 or EC50 that approximates it; bounds were set here for any values at or beyond the usual limits of such assays
condition.details: source organism: Bacillus cereus ATCC 14579
assay.endpoint: Kd (nM)
Write the answer as a number in nM, unit excluded.

I looked up LYSLWTKRK and its Kd for HLA-A*23:01 was 245
